- Test method notes: soluble on expression in E. coli; label from the status in PepcDB or PDB records

| Sequence chain | soluble on expression in E. coli |
| --- | --- |
| MGSDKIHHHHHHMPVTAIFSPDTPAMGIGWRHPHYAGLLQTGPALDFIEVHSENFFAPGGAARAVLRQGREHYPVSLHGTGLSLGSACGVDEWHLAQLAELVQEIDPVRVSDHASFARGHLPGTDAPVHAADLLPVPFTREALAVMCSNVQRVQERLKRPIAVENLSAYLDWRAADMRETEFLAALAQRTGCSLLVDVNNLYVNAQNAWLRGALNSAPGDADAALASCRDWIDQIAASPVAELHLAGHAHLGDIVIDDHGSRVCAEVWQLYRHALARLGPVPTLIEWDTDVPALSVLLDEVARARGIAQGRPATRQPSAEARP | not soluble |
| MGSDKIHHHHHHMVVIISAHNIATLEYQPMPKISDSGEPVEGVQAVALTLKILEALANARSTVGVTELSKQIGAGKARVYRHLQTLVTLGYALKDEESERYSTGPQLLRLSHTLSYRLDVVEAARLPARKLSDATGLTAVVARVEGDAIVVVHAEYSRADTMRSPRIGTTMQFHYTALGKIALAFGPAELRSRVLNEPLEQLTAYTITDRRDLMKKLEKIQELGWASSANEGMVGFNALAAPITDAHERLVGMICVVGSIKQLPATPPQNYLDALLSTADDISAYFGHVSRMPS | not soluble |

* * *

- Test method notes: soluble on expression in E. coli; label from the status in PepcDB or PDB records
Property label: soluble on expression in E. coli

| Sequence chain | Result |
| --- | --- |
| MKILILGNGQVGSTVAQNLAAIPNNDVTVIDIDEKALQETGSRLDVQTVFGNGASPFTLERAGAEDADLLLALSRSDETNIVACKVAADLFNIPGRIARVRSSEYLEYLSPKLENNENGSLSIFGITETISPEQLVTEQLAGLIDCPGALQVLRFADDRVRMVIIQARRGGLLVGRSIADIAQDLPDGADCQICAVYRNNRLIVPAPQTVIIEGDEILFAAAAENIGAVIPELRPKETSTRR | not soluble |
| MGSDKIHHHHHHMNDALITDALIRGRHAKRGFHRERPVPLETVRDILAVAKYAPSSSNTQPWRCYVVIGDARDRLANAAVEAYRADPENLTPEYPFFPKPLHEPYSARFNTFRGQLGDAQGVPRSDKAGRRRDVERQFRFFDAPIGLIFTMDRRLEWASFLCYGCFLQNIMLAARARGLDTCPQQIWSLQYAVLREQLDIPEGEMVVAGMSLGYADDSLPENNMALRRLELEEFVSVIEG | not soluble |
| SLNSSIDVDSLMRSVSRVFKFIDMPTEGKPTKSTKPYKNGQLSKVMIIENSHVKKDDIWPSGGQMTVKDLTAKYTEGGNAILENISFSISPGQRVGLLGRTGSGKSTLLSAFLRLLNTEGEIQIDGVSWDSITLQQWRKAFGVIPQKVFIFSGTFRKNLDPYEQWSDQEIWKVADEVGLRSVIEQFPGKLDFVLVDGGCVLSHGHKQLMCLARSVLSKAKILLLDEPSAHLDPVTYQIIRRTLKQAFADCTVILCEHRIEAMLECQQFLVIEENKVRQYDSIQKLLNERSLFRQAISPSDRVKLFPHRNSSKCKSKPQIAALKEETEEEVQDTRL | soluble |
| MAAEIKQGDHKFYVGDDENNPKAVITFKEVDNNEIDIDHTGVSDELGGQGLGKKLVNRVVEHARENNLKIIASCPFAKNVLEKDDHAQDVYLGLEHHHHHH | soluble |

Would you mind giving soluble on expression in E. coli for every sequence in the list below?
1. MGSDKIHHHHHHMDSIQESDVLNAVKTKLPPCCLRIFRNKIILVGTYDLDKSTGYRSGSLDVFTMDLKLLCSNNTYGAILDLKLSPFDDTLICTAHSTGNIMLWRIRCTDKDDFQSNELDIHAIANLQLFEKDVLIASCHFSPLDCKKLLVTNTAGEAATIDIRTLSVQFTASAIAQAYSKLDKIDYEVQGATEKVIHVESGQFLKPHELECWTAEFGSLQPFQDVVFTGGDDSRIMAHDLRSKEFIWSNNRIHDAGVVSIKCSQPNFRNNKPTSIITGSYDDNIRSLDLRMMGESIFPGANVPTVNKLACDLGGGVWRFVESPIDQEQSHHNGSDRLLVCCMYNGAKVVTMNDNSDEYFQIQHYLKKGHDSMCYGGDWSNSLIATCSFYDNSLQTWIV
2. MRKLFLLAIVLCVWSVVADAQESERRYIEVTGSSEIEVVPDEIHLLIQIKEYWKEEFVPKSKPEDYKTKVPLEWIEKDLRRVLSRAGISDEAIRVQEIGDYWRQKGKEFLIGKQLDIRFTDFEKINAVIKKIDTKGIESMRIGELKHKDLPNYRKQGKIEALKAAREKASYLVEAMGQKLGEVIRIVEPASSYVSPYSLYQAQSNVSMGTAATEQYRVITLRYEMTARFAIELEHHHHHH
3. MVAGGFGVGKTTLIGSVSEVRPLRMEEPITQASAGVDDLRGTPHKTTTTVAMDFGRIHMAGGRLALYLFGLPGQSRFQPLWEDLAEGALGCLVLADTRDLDASHDALGLLDGAGIPYAVAINTFPGSPSYPEAELREALALEPATPLTYCDARDRTSSLHALITLTEYLSEHRSAALLESRRLEHHHHHH
4. GSHMLTKQQIRYCLDEMAKMFPDAHCELVHRNPFELLIAVVLSAQCTDALVNKVTKRLFEKYRTPHDYIAVPLEELEQDIRSIGLYRNKARNIQKLCAMLIDKYNGEVPRDRDELMKLPGVGRKTANVVVSVAFGVPAIAVDTHVERVSKRLGFCRWDDSVLEVEKTLMKIIPKEEWSITHHRMIFFGRYHCKAQSPQCPSCPLLHLCREGKKRMRKREEKAANQK
5. GSHMSETDLLMKMVRQPVKLYSVATLFHEFSEVITKLEHSVQKEPTSLLSEENWHKQFLKFAQALPAHGSASWLNLDDALQAVVGNSRSAFLHQLIAKLKSRHLQVLELNKIGSEPLDLSNLPAPFYVLLPESFAARITLLVQDKALPYVRVSMEYWHALEYKGELNDPAANKARKEAELAAATAEQ
6. MIPITPTIALDDAEIEERFIRSSGPGGQNVNKVSTAVQLRFDVAGSPNLPGWVKHRLSVLAGSRLTGEGVLVLTAQSQRTQEANRREAVERLVALIQAACHRDKPRRPTRPTKGSQTRRMDGKTLRGAIKKGRQSKPSLDLEHHHHHH
7. MSDTLLLTVLLRHDQSKNLDEIQARMKAMDWWERFPGEGVEIVSWTVAMGLGQIVTLRLPPALLPRVNVELERSAWGVFRTECYPTYDFVPVRETIRERVRTGGQ
8. MDMGLREMCVGEKRTVIIPPHLGYGEAGVDGEVPGSAVLVFDIELLELVAGLPEGYMFIWNGEVSPNLFEEIDKDGNGEVLLEEFSEYIHAQVASGKGKLAPGFDAELIVKNMFTNQDRNGDGKVTAEEFKLKDQEAKQDEL

[reply]
1. not soluble
2. soluble
3. not soluble
4. soluble
5. soluble
6. soluble
7. not soluble
8. soluble

[ask] Fill in the blank: the reported soluble on expression in E. coli of `MKAICVLSGGLDSAVTSMFAKSKNYDISTVTFNYGQMALNQEIKSAKKISDILNADHHVIDINFVKEFSKSGLNTGNIPEPENEDLDDFEKSEKTMKAVWVPARNMIMFSIASGFAEGIGAEKIFSGLNKEEGVTFPDNTPEFIERFNKSLEYGTLNKVKMVAPLYELNKPEIAKLGKELELKLDLEVLKYSYSCYKDNGKDYLHCGTCESCMRRKRAFKEAGITDPTKYLVE` is ____.
[reply] not soluble
